B1: Protein PTHB1 (Homo sapiens), Q3SYG4 (parent)
chain: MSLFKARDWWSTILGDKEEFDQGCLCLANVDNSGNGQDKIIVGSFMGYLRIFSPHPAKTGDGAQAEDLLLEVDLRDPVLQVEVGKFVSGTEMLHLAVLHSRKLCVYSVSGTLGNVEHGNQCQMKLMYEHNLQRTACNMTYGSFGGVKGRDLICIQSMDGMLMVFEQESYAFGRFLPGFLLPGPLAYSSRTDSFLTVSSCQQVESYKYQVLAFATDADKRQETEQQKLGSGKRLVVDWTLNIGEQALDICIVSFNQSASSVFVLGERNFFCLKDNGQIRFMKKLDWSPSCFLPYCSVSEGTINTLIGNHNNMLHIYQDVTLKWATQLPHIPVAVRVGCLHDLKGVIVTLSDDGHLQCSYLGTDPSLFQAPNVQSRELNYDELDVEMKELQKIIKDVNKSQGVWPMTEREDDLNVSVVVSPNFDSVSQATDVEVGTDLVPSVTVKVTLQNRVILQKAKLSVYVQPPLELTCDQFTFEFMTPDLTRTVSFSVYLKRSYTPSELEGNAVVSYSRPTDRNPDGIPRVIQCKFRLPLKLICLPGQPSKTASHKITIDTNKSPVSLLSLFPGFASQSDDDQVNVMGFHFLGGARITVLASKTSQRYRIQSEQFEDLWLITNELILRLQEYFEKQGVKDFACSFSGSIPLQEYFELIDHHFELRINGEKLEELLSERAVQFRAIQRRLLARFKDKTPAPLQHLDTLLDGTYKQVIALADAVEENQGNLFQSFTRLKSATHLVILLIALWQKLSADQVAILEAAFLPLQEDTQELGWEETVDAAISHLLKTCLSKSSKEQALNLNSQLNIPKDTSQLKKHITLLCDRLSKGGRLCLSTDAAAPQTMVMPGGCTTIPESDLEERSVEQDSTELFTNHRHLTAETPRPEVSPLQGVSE
partner: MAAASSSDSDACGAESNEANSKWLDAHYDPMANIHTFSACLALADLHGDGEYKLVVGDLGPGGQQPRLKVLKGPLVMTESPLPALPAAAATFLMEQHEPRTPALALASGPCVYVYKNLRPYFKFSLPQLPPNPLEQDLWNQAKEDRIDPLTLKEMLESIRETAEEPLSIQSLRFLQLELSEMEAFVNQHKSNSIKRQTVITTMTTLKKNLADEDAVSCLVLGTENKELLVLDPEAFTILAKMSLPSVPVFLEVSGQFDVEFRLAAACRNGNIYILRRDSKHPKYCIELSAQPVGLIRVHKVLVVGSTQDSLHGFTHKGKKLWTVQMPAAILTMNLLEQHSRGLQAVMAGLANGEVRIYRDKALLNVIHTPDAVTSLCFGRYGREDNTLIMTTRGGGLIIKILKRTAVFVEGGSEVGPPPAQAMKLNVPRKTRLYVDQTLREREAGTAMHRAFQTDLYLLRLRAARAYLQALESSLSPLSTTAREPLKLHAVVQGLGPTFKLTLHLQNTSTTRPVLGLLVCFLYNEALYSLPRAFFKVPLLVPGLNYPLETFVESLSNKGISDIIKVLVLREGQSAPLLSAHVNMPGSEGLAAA

Variants of: B1
EXPERIMENTAL CONDITIONS: with bbs1_human BBS1, Q8NFJ9
ATTRIBUTE MEASURED: effect of a mutation on the interaction

// worked examples, effect of a mutation on the interaction included
1. A633E	with no effect
2. S570K	with no effect
3. Q539A	with no effect
4. E765K	with no effect
5. E408A	with no effect

I have this variant here, G518K , and I need its recorded effect of a mutation on the interaction. with no effect
